Attribute: T/C
Tested on: Mus musculus
procedure_summary: At 25 mg/kg dose CDF1 mice were injected ip on (1,5,9) days after tumor transplantation to evaluate mean survival time
Assay type: functional
test_settings: route intraperitoneal
Lab book: enter the figure in %, no units written.

Check out these entries, answers already filled in.
Mus musculus / T/C / `O=C1c2ccccc2C(=O)c2c(NC3CC3)ccc(NC3CC3)c21` : value? 107

Mus musculus / T/C / `CN(C)CCNc1ccc(NCCN)c2c1C(=O)c1ccccc1C2=O` : value? 150

Mus musculus / T/C / `CN(C)CCNc1ccc(NCCNCCO)c2c1C(=O)c1c(O)ccc(O)c1C2=O` : value? 244

---
Mus musculus / T/C / `CN(C)CCNc1ccc(NCCNCCO)c2c1C(=O)c1ccccc1C2=O` : value? 148

Mus musculus / T/C / O=C1c2ccccc2C(=O)c2c(NCCNCCO)ccc(NCCNCCO)c21 [AMETANTRONE] : value? 252
